# experimental_details: Test of Pharmacokinetics in Animals (rats)
# Type: in vivo
# study_conditions: rat, whole blood; rats, SC, 20 mg/kg; read-out: Cmax
property_measured: Cmax (ng/mL)

[[record]]
compound = "C[C@@H](O)[C@H]1C(=O)N2C(C(=O)O)=C(S[C@@H]3CN[C@H](C(=O)N(C)C)C3)[C@H](C)[C@H]12 [Meropenem, reference compound]"
numeric_readout = 3920


----------
# Test system: Escherichia coli 078
# experimental_details: Measurement of Minimum Inhibitory Concentration (MIC)
# Format: cell-based
property_measured: log10 of MIC (log10 of the value in µg/mL)

[[record]]
compound = "C[C@@H](O)[C@H]1C(=O)N2C(C(=O)[O-])=C(SC3CN(Cc4ccc(F)cc4)C3)[C@H](C)[C@H]12.[K+]"
target_system = "Escherichia coli 078"
numeric_readout = -1.60

[[record]]
compound = "C[C@@H](O)[C@H]1C(=O)N2C(C(=O)[O-])=C(SC3CN([C@@H](C)c4ccccc4)C3)[C@H](C)[C@H]12.[K+]"
target_system = "Escherichia coli 078"
numeric_readout = -1.01

[[record]]
compound = "COc1ccc(CN2CC(SC3=C(C(=O)[O-])N4C(=O)[C@H]([C@@H](C)O)[C@H]4[C@H]3C)C2)cc1OC.[K+]"
target_system = "Escherichia coli 078"
numeric_readout = -1.01

[[record]]
compound = "C[C@@H](O)[C@H]1C(=O)N2C(C(=O)[O-])=C(SC3CN(Cc4ccccc4)C3)[C@H](C)[C@H]12.[K+]"
target_system = "Escherichia coli 078"
numeric_readout = -1.31

[[record]]
compound = "COc1ccc(CN2CC(SC3=C(C(=O)[O-])N4C(=O)[C@H]([C@@H](C)O)[C@H]4[C@H]3C)C2)cc1.[K+]"
target_system = "Escherichia coli 078"
numeric_readout = -1.89

[[record]]
compound = "CN[C@H](CC(C)C)C(=O)N[C@H]1C(=O)N[C@@H](CC(N)=O)C(=O)N[C@H]2C(=O)N[C@H]3C(=O)N[C@H](C(=O)N[C@H](C(=O)O)c4cc(O)cc(O)c4-c4cc3ccc4O)[C@H](O)c3ccc(c(Cl)c3)Oc3cc2cc(c3O[C@@H]2O[C@H](CO)[C@@H](O)[C@H](O)[C@H]2O[C@H]2C[C@](C)(N)[C@H](O)[C@H](C)O2)Oc2ccc(cc2Cl)[C@H]1O [Vancomycin, vancomycin, reference compound]"
target_system = "Escherichia coli 078"
numeric_readout = 2.00

[[record]]
compound = "COc1ccccc1CN1CC(SC2=C(C(=O)[O-])N3C(=O)[C@H]([C@@H](C)O)[C@H]3[C@H]2C)C1.[K+]"
target_system = "Escherichia coli 078"
numeric_readout = -1.01


----------
# Tested on: Staphylococcus aureus 695E
# experimental_details: Measurement of Minimum Inhibitory Concentration (MIC), MRSA
# Type: cell-based
# study_conditions: Staphylococcus aureus 695E
property_measured: MIC (µg/mL)

[[record]]
smiles_text = "C[C@@H](O)[C@H]1C(=O)N2C(C(=O)[O-])=C(SC3CN(Cc4ccc(F)cc4)C3)[C@H](C)[C@H]12.[K+]"
numeric_readout = 0.195

[[record]]
smiles_text = "COc1ccc(CN2CC(SC3=C(C(=O)[O-])N4C(=O)[C@H]([C@@H](C)O)[C@H]4[C@H]3C)C2)cc1OC.[K+]"
numeric_readout = 0.098

[[record]]
smiles_text = "C[C@@H](O)[C@H]1C(=O)N2C(C(=O)[O-])=C(SC3CN([C@@H](C)c4ccccc4)C3)[C@H](C)[C@H]12.[K+]"
numeric_readout = 0.098

[[record]]
smiles_text = "C[C@@H](O)[C@H]1C(=O)N2C(C(=O)[O-])=C(SC3CN(Cc4ccccc4)C3)[C@H](C)[C@H]12.[K+]"
numeric_readout = 0.391

[[record]]
smiles_text = "COc1ccc(CN2CC(SC3=C(C(=O)[O-])N4C(=O)[C@H]([C@@H](C)O)[C@H]4[C@H]3C)C2)cc1.[K+]"
numeric_readout = 0.098

[[record]]
smiles_text = "COc1ccccc1CN1CC(SC2=C(C(=O)[O-])N3C(=O)[C@H]([C@@H](C)O)[C@H]3[C@H]2C)C1.[K+]"
numeric_readout = 0.049

